Molecular target: SLY (Suilysin) (Streptococcus suis)
Sequence (Q55996 28-497 limits assumed): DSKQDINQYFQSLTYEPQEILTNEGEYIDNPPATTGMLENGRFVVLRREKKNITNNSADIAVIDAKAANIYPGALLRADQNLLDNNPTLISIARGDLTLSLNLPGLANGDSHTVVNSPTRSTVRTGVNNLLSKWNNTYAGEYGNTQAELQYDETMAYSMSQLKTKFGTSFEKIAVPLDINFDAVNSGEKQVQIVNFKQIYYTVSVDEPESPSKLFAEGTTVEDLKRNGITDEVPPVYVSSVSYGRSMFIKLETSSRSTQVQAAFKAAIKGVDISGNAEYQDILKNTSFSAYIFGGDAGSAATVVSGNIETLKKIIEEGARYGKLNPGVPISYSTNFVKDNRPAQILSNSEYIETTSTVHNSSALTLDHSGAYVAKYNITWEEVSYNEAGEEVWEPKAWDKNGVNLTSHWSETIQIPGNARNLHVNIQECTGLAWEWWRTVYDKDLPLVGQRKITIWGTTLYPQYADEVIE
measured endpoint: Kd (nM)
The response must be a number in nM with no trailing unit.

// query Check the records and state Kd for O=c1cc(-c2ccc(O)c(O)c2)oc2cc(O)cc(O)c12 [Luteolin]
// result 554
